tested on: HCI-012 (organoid from a breast cancer xenograft); assay: CTG-3D luminescence at 96 h relative to day-0 seeding control (ratio to day 0); higher = more growth / less cytotoxicity; PDxO 3D drug screen, 96 h, CTG-3D normalised to day-0 seeding control.; conditions: 12.5 pM; days in culture: 143
measured_attribute: CTG-3D luminescence at 96 h
Numbers only.

Example entries begin here.
COc1cc2c(Oc3ccc4[nH]c(C)cc4c3F)ncnc2cc1OCCCN1CCCC1 :: 2.15
CNC(=O)c1cccc(-c2ccc3c(N4CCOC[C@@H]4C)nc(N4CCOC[C@@H]4C)nc3n2)c1 :: 2.08
COc1cccc2c1C(=O)c1c(O)c3c(c(O)c1C2=O)C[C@@](O)(C(=O)CO)C[C@@H]3O[C@H]1C[C@H](N)[C@H](O)[C@H](C)O1 :: 1.78
C=CC(=O)N1CCC[C@@H](n2nc(-c3ccc(Oc4ccccc4)cc3)c3c(N)ncnc32)C1 :: 1.95
C=CCn1c(=O)c2cnc(Nc3ccc(N4CCN(C)CC4)cc3)nc2n1-c1cccc(C(C)(C)O)n1 :: 1.94

Please supply CTG-3D luminescence at 96 h for each of the following items, keeping them in order.
1. O=C(O)C1(C(=O)O)CCC1.[NH2-].[NH2-].[Pt+2]
2. O=C(c1ccc(F)c(F)c1Nc1ccc(I)cc1F)N1CC(O)([C@@H]2CCCCN2)C1

Output:
1: 2.05; 2: 1.73
